Each record here notes measured Ke.
- study target: Substance-P receptor (Cavia porcellus)
- assay procedure: Antagonist activity at NK1 receptor in Hartley guinea pig isolated ileum assessed as inhibition of substance P-induced muscle contraction
- Assay type: functional, tissue-based
Square brackets hold non-standard residues; d marks the D form. Peptide text beside a SMILES is read from it. * marks the point of attachment. OBzl(3,5-(CF3)2) = FC(F)(F)c1cc(CO*)cc(C(F)(F)F)c1
Please respond with the number in nM and leave the unit unwritten.

- molecule: "CC(C)C[C@H](NC(=O)[C@@H]1CCCN1C(=O)[C@@H](Cc1ccccc1)NC(=O)[C@H](Cc1ccccc1)NC(=O)CNC(=O)[C@@H](C)NC(=O)[C@@H](N)Cc1ccc(O)cc1)C(=O)N[C@@H](Cc1c[nH]c2ccccc12)C(=O)OCc1cc(C(F)(F)F)cc(C(F)(F)F)c1"
  readout kind: "Ke"
  reading: 70

Reported Ke ( CCCC[C@H](NC(=O)[C@H](Cc1ccccc1)NC(=O)CNC(=O)[C@@H](C)NC(=O)[C@@H](N)Cc1ccc(O)cc1)C(=O)N1CCC[C@H]1C(=O)N[C@@H](CC(C)C)C(=O)N[C@@H](Cc1c[nH]c2ccccc12)C(=O)OCc1cc(C(F)(F)F)cc(C(F)(F)F)c1 ) = 7.9

Sure, the documented Ke for CC(C)C[C@H](NC(=O)[C@@H]1CCCN1C(=O)[C@H](Cc1ccccc1)NC(=O)[C@H](Cc1ccccc1)NC(=O)CNC(=O)[C@@H](C)NC(=O)[C@@H](N)Cc1ccc(O)cc1)C(=O)N[C@@H](Cc1c[nH]c2ccccc12)C(=O)OCc1cc(C(F)(F)F)cc(C(F)(F)F)c1 is 14

Consider CCCC[C@@H](C(=O)N1CCC[C@H]1C(=O)N[C@@H](CC(C)C)C(=O)N[C@@H](Cc1c[nH]c2ccccc12)C(=O)OCc1cc(C(F)(F)F)cc(C(F)(F)F)c1)N(C)C(=O)[C@H](Cc1ccccc1)NC(=O)CNC(=O)[C@@H](C)NC(=O)[C@@H](N)Cc1ccc(O)cc1 . Its measured Ke is 4.6

Lookup result for CSCC[C@H](NC(=O)[C@H](Cc1ccccc1)NC(=O)CNC(=O)[C@@H](C)NC(=O)[C@@H](N)Cc1ccc(O)cc1)C(=O)N1CCC[C@H]1C(=O)N[C@@H](CC(C)C)C(=O)N[C@@H](Cc1c[nH]c2ccccc12)C(=O)OCc1cc(C(F)(F)F)cc(C(F)(F)F)c1 ; measured Ke: 25

Record CC(C)C[C@H](NC(=O)[C@@H]1CCCN1C(=O)CNC(=O)[C@H](Cc1ccccc1)NC(=O)CNC(=O)[C@@H](C)NC(=O)[C@@H](N)Cc1ccc(O)cc1)C(=O)N[C@@H](Cc1c[nH]c2ccccc12)C(=O)OCc1cc(C(F)(F)F)cc(C(F)(F)F)c1 (H-Y[dA]GFGPLW-{OBzl(3,5-(CF3)2)}) , field Ke: 5.4

----------
- study target: Substance-P receptor (Cavia porcellus) (UniProt P30547)
- Sequence (P30547 whole entry): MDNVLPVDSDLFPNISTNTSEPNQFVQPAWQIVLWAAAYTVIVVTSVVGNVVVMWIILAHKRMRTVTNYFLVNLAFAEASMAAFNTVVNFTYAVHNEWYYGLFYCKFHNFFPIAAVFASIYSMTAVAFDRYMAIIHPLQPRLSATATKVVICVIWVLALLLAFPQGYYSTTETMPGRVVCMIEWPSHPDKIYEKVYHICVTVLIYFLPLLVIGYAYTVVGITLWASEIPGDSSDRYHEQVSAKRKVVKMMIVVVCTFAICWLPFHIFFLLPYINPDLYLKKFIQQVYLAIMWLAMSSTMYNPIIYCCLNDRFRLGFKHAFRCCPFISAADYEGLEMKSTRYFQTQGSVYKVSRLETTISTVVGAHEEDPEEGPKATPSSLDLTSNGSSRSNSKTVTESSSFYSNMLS
- assay procedure: Antagonist activity at NK1 receptor in Hartley guinea pig isolated ileum assessed as inhibition of substance P-induced muscle contraction
- Format: functional, tissue-based
readout kind: Ke (nM)
Numbers only here, please. The scale is nM.

Worked set:
- compound: "CC(=O)N[C@@H](Cc1c[nH]c2ccccc12)C(=O)OCc1cc(C(F)(F)F)cc(C(F)(F)F)c1"
  unit of measurement: "nM"
  Ke: 250
- compound: "CC(C)C[C@H](NC(=O)[C@@H]1CCCN1C(=O)[C@H](CC(C)C)NC(=O)[C@H](Cc1ccccc1)NC(=O)CNC(=O)[C@@H](C)NC(=O)[C@@H](N)Cc1ccc(O)cc1)C(=O)N[C@@H](Cc1c[nH]c2ccccc12)C(=O)OCc1cc(C(F)(F)F)cc(C(F)(F)F)c1"
  unit of measurement: "nM"
  Ke: 19

Okay, now this compound:
Value of Ke reported for the compound CC(C)C[C@H](NC(=O)[C@@H]1CCCN1C(=O)[C@H](CC[S+](C)[O-])NC(=O)[C@H](Cc1ccccc1)NC(=O)CNC(=O)[C@@H](C)NC(=O)[C@@H](N)Cc1ccc(O)cc1)C(=O)N[C@@H](Cc1c[nH]c2ccccc12)C(=O)OCc1cc(C(F)(F)F)cc(C(F)(F)F)c1 (stereo partly drawn) is 7.8

----------
Quick reference: Emax of the listed items.
- study target: Delta-type opioid receptor (Homo sapiens, UniProt P41143)
- Sequence (P41143 whole entry): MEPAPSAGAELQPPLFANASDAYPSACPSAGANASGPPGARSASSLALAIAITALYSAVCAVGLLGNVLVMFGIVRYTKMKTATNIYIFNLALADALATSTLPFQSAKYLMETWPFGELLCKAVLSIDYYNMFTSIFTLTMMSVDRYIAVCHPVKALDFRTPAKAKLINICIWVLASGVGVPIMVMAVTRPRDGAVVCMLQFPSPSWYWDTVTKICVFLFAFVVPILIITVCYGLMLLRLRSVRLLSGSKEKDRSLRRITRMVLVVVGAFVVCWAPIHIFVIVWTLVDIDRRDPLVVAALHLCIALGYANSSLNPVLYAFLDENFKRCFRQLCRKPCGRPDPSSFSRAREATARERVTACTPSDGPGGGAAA
- assay procedure: Agonist activity at human delta opioid receptor expressed in HN9.10 cells assessed by [35S]GTP-gamma-S binding assay relative to control
- Assay type: functional, cell-based
Write down the numeric answer in % and omit the unit.

Consider the following illustrative entries.
- chem smiles: "CC(C)C[C@H](NC(=O)[C@@H]1CCCN1C(=O)[C@@H](Cc1ccccc1)NC(=O)[C@H](Cc1ccccc1)NC(=O)CNC(=O)[C@@H](C)NC(=O)[C@@H](N)Cc1ccc(O)cc1)C(=O)N[C@@H](Cc1c[nH]c2ccccc12)C(=O)OCc1cc(C(F)(F)F)cc(C(F)(F)F)c1"
  Emax / %: 23
- chem smiles: "CC(C)C[C@H](NC(=O)[C@@H]1CCCN1C(=O)[C@H](CC(C)C)NC(=O)[C@H](Cc1ccccc1)NC(=O)CNC(=O)[C@@H](C)NC(=O)[C@@H](N)Cc1ccc(O)cc1)C(=O)N[C@@H](Cc1c[nH]c2ccccc12)C(=O)OCc1cc(C(F)(F)F)cc(C(F)(F)F)c1"
  Emax / %: 43
- chem smiles: "CC(C)C[C@H](NC(=O)[C@@H]1CCCN1C(=O)[C@H](Cc1ccccc1)NC(=O)[C@H](Cc1ccccc1)NC(=O)CNC(=O)[C@@H](C)NC(=O)[C@@H](N)Cc1ccc(O)cc1)C(=O)N[C@@H](Cc1c[nH]c2ccccc12)C(=O)OCc1cc(C(F)(F)F)cc(C(F)(F)F)c1"
  Emax / %: 39

Entry CCCC[C@H](NC(=O)[C@H](Cc1ccccc1)NC(=O)CNC(=O)[C@@H](C)NC(=O)[C@@H](N)Cc1ccc(O)cc1)C(=O)N1CCC[C@H]1C(=O)N[C@@H](CC(C)C)C(=O)N[C@@H](Cc1c[nH]c2ccccc12)C(=O)OCc1cc(C(F)(F)F)cc(C(F)(F)F)c1 , Emax reported as 130

----------
- study target: Mu-type opioid receptor (Cavia porcellus, UniProt P97266)
- Sequence (P97266 whole entry): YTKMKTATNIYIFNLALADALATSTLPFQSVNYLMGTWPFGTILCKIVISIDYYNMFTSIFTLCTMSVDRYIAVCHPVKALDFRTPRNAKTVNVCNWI
- assay procedure: Agonist activity at mu opioid receptor in Hartley guinea pig ileum assessed as inhibition of electrically-stimulated muscle contraction
Square brackets hold non-standard residues; d marks the D form. Peptide text beside a SMILES is read from it. * marks the point of attachment. OBzl(3,5-(CF3)2) = FC(F)(F)c1cc(CO*)cc(C(F)(F)F)c1
Some compounds, each annotated with its measured pIC50.
In plain terms, pIC50 is the concentration in mol/L turned into minus its base-10 logarithm.

- compound: "CCCC[C@H](NC(=O)[C@H](Cc1ccccc1)NC(=O)CNC(=O)[C@@H](C)NC(=O)[C@@H](N)Cc1ccc(O)cc1)C(=O)N1CCC[C@H]1C(=O)N[C@@H](CC(C)C)C(=O)N[C@@H](Cc1c[nH]c2ccccc12)C(=O)OCc1cc(C(F)(F)F)cc(C(F)(F)F)c1"
  pIC50: 6.43
- compound: "CC(C)C[C@H](NC(=O)[C@@H]1CCCN1C(=O)CNC(=O)[C@H](Cc1ccccc1)NC(=O)CNC(=O)[C@@H](C)NC(=O)[C@@H](N)Cc1ccc(O)cc1)C(=O)N[C@@H](Cc1c[nH]c2ccccc12)C(=O)OCc1cc(C(F)(F)F)cc(C(F)(F)F)c1 (H-Y[dA]GFGPLW-{OBzl(3,5-(CF3)2)})"
  pIC50: 6.42
- compound: "CC(C)C[C@@H](NC(=O)[C@H](Cc1ccccc1)NC(=O)CNC(=O)[C@@H](C)NC(=O)[C@@H](N)Cc1ccc(O)cc1)C(=O)O"
  pIC50: 7.62
- compound: "CSCC[C@H](NC(=O)[C@H](Cc1ccccc1)NC(=O)CNC(=O)[C@@H](C)NC(=O)[C@@H](N)Cc1ccc(O)cc1)C(=O)N1CCC[C@H]1C(=O)N[C@@H](CC(C)C)C(=O)N[C@@H](Cc1c[nH]c2ccccc12)C(=O)OCc1cc(C(F)(F)F)cc(C(F)(F)F)c1"
  pIC50: 6.44
- compound: "CC(C)C[C@H](NC(=O)[C@@H]1CCCN1C(=O)[C@H](CC[S+](C)[O-])NC(=O)[C@H](Cc1ccccc1)NC(=O)CNC(=O)[C@@H](C)NC(=O)[C@@H](N)Cc1ccc(O)cc1)C(=O)N[C@@H](Cc1c[nH]c2ccccc12)C(=O)OCc1cc(C(F)(F)F)cc(C(F)(F)F)c1 (stereo partly specified)"
  pIC50: 6.82

API: the following record is the query input.
Form field pIC50, entry CC(C)C[C@H](NC(=O)[C@@H]1CCCN1C(=O)[C@H](CC(C)C)NC(=O)[C@H](Cc1ccccc1)NC(=O)CNC(=O)[C@@H](C)NC(=O)[C@@H](N)Cc1ccc(O)cc1)C(=O)N[C@@H](Cc1c[nH]c2ccccc12)C(=O)OCc1cc(C(F)(F)F)cc(C(F)(F)F)c1 : 6.47
